src = the supplement of paper PMC12645437

- System Name: T1, CRBN, Q96SW2;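 note: pooled lentiviral library of zinc finger degron-EGFP fusions in mCherry-positive Jurkat cells, FACS-sorted after compound exposure, with degron abundance counted by next-generation sequencing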
- T1 chain: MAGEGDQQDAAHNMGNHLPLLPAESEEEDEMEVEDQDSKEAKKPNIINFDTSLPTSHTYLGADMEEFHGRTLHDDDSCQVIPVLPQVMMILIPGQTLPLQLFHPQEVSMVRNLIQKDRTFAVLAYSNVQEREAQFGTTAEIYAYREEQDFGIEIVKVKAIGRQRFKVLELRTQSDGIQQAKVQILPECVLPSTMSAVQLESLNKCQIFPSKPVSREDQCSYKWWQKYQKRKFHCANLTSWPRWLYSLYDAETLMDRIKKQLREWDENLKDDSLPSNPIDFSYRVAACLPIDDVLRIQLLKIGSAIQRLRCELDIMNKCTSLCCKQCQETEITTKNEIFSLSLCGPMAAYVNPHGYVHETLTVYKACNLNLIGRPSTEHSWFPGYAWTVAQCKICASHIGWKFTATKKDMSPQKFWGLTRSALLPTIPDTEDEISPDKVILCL
- Test Summary: log2 fold change of degron read counts, EGFP-low vs EGFP+ sorted cells (limma voom), compound-induced degradation; higher = more compound-induced degradation of the degron-EGFP fusion; degrons are variants of IKZF1/3 zinc finger 2; compound dose not given here
- Assay Conditions: Jurkat; 18 h; compound: compound 19 (5-tert-butyl-thalidomide)
Whole data set: some 8,300 sequences, median “log2 fold change of degron read counts, EGFP-low vs EGFP+ sorted cells (limma voom), compound-induced degradation” near -1.1, cut for the highest 2% near 3.2. The sample holds the highest values, similar sequences and a random draw of the others, so the mix is not that of the screen.
The label depends only on log2 fold change of degron read counts: yes if it is at least -2, no if it is smaller.

Some solved entries appear below for comparison.
FICEICGAMFTQKGNLLRHIKL [46F_47I_49E_50I_52G_53A_54M_55F_67L_, Q9UKT9] : yes
FICPVCGACFTQKGNLLRHIKL [46F_47I_49P_50V_52G_53A_54C_55F_67L_, Q9UKT9] : yes
LFCEICGFVCTQKGNLLRHIKL [46L_47F_49E_50I_52G_53F_54V_55C_67L_, Q9UKT9] : yes
FQCNQCGHIFTQKGNLLRHIKL [46F_47Q_49N_50Q_52G_53H_54I_55F_67L_, Q9UKT9] : no
LKCPICGFMCTQKGNLLRHIKL [46L_47K_49P_50I_52G_53F_54M_55C_67L_, Q9UKT9] : yes

q: Does the sequence LRCPICGFHCTQKGNLLRHIKL [46L_47R_49P_50I_52G_53F_54H_55C_67L_, Q9UKT9] have recorded log2 fold change of degron read counts that is -2 or more?
a: yes

q: Does the sequence LCCEICGFVCTQKGNLLRHIKL [46L_47C_49E_50I_52G_53F_54V_55C_67L_, Q9UKT9] have recorded log2 fold change of degron read counts that is -2 or more?
a: yes

q: Does the sequence FFCNQCGRDFTQKGNLLRHIKL [46F_47F_49N_50Q_52G_53R_54D_55F_67L_, Q9UKT9] have recorded log2 fold change of degron read counts that is -2 or more?
a: no

q: Does the sequence FDCPICGAEFTQKGNLLRHIKL [46F_47D_49P_50I_52G_53A_54E_55F_67L_, Q9UKT9] have recorded log2 fold change of degron read counts that is -2 or more?
a: yes

q: Does the sequence FTCEICGRLFTQKGNLLRHIKL [46F_47T_49E_50I_52G_53R_54L_55F_67L_, Q9UKT9] have recorded log2 fold change of degron read counts that is -2 or more?
a: no

q: Does the sequence FVCEICGRHFTQKGNLLRHIKL [46F_47V_49E_50I_52G_53R_54H_55F_67L_, Q9UKT9] have recorded log2 fold change of degron read counts that is -2 or more?
a: no

q: Does the sequence FTCNVCGALFTQKGNLLRHIKL [46F_47T_49N_50V_52G_53A_54L_55F_67L_, Q9UKT9] have recorded log2 fold change of degron read counts that is -2 or more?
a: no

q: Does the sequence FWCPICGHRFTQKGNLLRHIKL [46F_47W_49P_50I_52G_53H_54R_55F_67L_, Q9UKT9] have recorded log2 fold change of degron read counts that is -2 or more?
a: yes

q: Does the sequence FLCPQCGAIFTQKGNLLRHIKL [46F_47L_49P_50Q_52G_53A_54I_55F_67L_, Q9UKT9] have recorded log2 fold change of degron read counts that is -2 or more?
a: yes

q: Does the sequence FTCEQCGAYFTQKGNLLRHIKL [46F_47T_49E_50Q_52G_53A_54Y_55F_67L_, Q9UKT9] have recorded log2 fold change of degron read counts that is -2 or more?
a: no
